- Measurement protocol: amyloid nucleation score (Sup35N fusion, yeast selection) (log enrichment); library NNK2; higher = more nucleation; inactive = no reads after selection;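 note: zero at mode of non-aggregating sequences after 7 days selection at 30°C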
Reported endpoint: amyloid nucleation score

> print(dat)
     construct.sequence  endpoint.value
1          MMYISSGVFWTE        inactive
2        SYLKETMTGLLPLG        inactive
3  CGFHYFFRSTGYMAVAIIIR        inactive
4            WFHGTGSQHS        inactive

====

- Measurement protocol: amyloid nucleation score (Sup35N fusion, yeast selection) (log enrichment); library NNK3; higher = more nucleation; inactive = no reads after selection
Reported endpoint: amyloid nucleation score

> print(dat)
              substance  endpoint.value
1               FGTSSEF        inactive
2  WSTLKMVRVCYGASFSNVYM        inactive
3             VPGYLWECS        inactive
4  RSWQEMFCEWSSALDWDWSV        inactive
5             RKGFKAIGY        inactive

Item YGAFWGYSAGAVKLNENFSV has what recorded amyloid nucleation score?
inactive

Then what about the substance NFGHMY ?
inactive

Then what about the substance QMSGMFTLVDWT ?
inactive

Cool, now PVNFFKKFMSAMEVRYHRTK
-0.046

Now the substance NVIRISICRSMRMGLKGCIF
0.732

Subsequent entry: MSMPWNNHMISNVYRSYFVA
inactive

Query SRYTLNAFYMWG next
2.02

Consider next the substance RRFCRYVYEMG in the same way.
inactive

Also need GYRDLRGWNVNRKDSLVS , thanks.
inactive

LGFESCVHRGKIKAVVMTST , same question.
inactive

Another: DALVYVLGSCMWIGASSTSA
-0.354

HPVGACCLQLRFGLYCICVA ?
0.023

Follow-up entry: IVVCFRSRRFCSSRYHS
inactive

Would you kindly repeat that for VVMYIRANPTDIYSYTLQPR ?
1.56
